Assay details: Single-molecule FRET cyclization (looping) of surface-immobilised 83 bp duplex with complementary 10-nt 5' overhangs; noncovalent ring closure by sticky-end hybridisation triggered by 1 M NaCl (no ligase)
Test parameters: the molecule shown is the open-chain precursor, water, 50 mM Tris-HCl, 3 mM Trolox, glucose oxidase/catalase oxygen scavenger, other
Measured attribute: ring closure, halflife (min)
Give bare numbers, in min.

[[record]]
substance = "DNA 5'-Cy5-gaagaagaggaaaaaagaaaagggacagaT(biotin)ggcaatgatggagccagggacggaggcgatggagccagtggagccggagatgaagcctctgga-3' / RNA 5'-Cy3-ccucuucuucuccagaggcuucaucuccggcuccacuggcuccaucgccuccgucccuggcuccaucauugccaucugucccuuuucuuuuuu-3'"
measure_unit = "min"
test_result = 21.7

[[record]]
substance = "DNA 5'-Cy5-agagaaagaggcaaaaggggacggaagggaT(biotin)ggagccagaggagggggtgacagttgagtctcagccacaggtgaaggtggagccactggagg-3' / RNA 5'-Cy3-cucuuucucuccuccaguggcuccaccuucaccuguggcugagacucaacugucacccccuccucuggcuccaucccuuccguccccuuuugc-3'"
measure_unit = "min"
test_result = 26.1


Now consider the entry below.
Ask: // lookup ring closure, halflife for DNA 5'-Cy5-cctccagtggctccaccttcacctgtggcT(biotin)gagactcaactgtcaccccctcctctggctccatcccttccgtccccttttgcctctttctct-3' / RNA 5'-Cy3-ccacuggaggagagaaagaggcaaaaggggacggaagggauggagccagaggagggggugacaguugagucucagccacaggugaagguggag-3'
Reply: 10.8

---

Assay details: Single-molecule FRET cyclization (looping) of surface-immobilised 83 bp duplex with complementary 10-nt 5' overhangs; noncovalent ring closure by sticky-end hybridisation triggered by 1 M NaCl (no ligase)
Test parameters: the molecule shown is the open-chain precursor, water, 50 mM Tris-HCl, 3 mM Trolox, glucose oxidase/catalase oxygen scavenger, other
For each entry below, report its ring closure, halflife value.
Answers are plain numbers, in min.

Look over these answered cases.
[[record]]
substance = "DNA 5'-Cy5-acggattctgtgaaacggtggaggtgaggaT(biotin)agtcatgggtcaattagaagtcataggagaagtattaagggagtctatattgaggtactagc-3' / RNA 5'-Cy3-cagaauccgugcuaguaccucaauauagacucccuuaauacuucuccuaugacuucuaauugacccaugacuauccucaccuccaccguuuca-3'"
measure_unit = "min"
test_result = 20.4

[[record]]
substance = "DNA 5'-Cy5-tccagaggcttcatctccggctccactggcT(biotin)ccatcgcctccgtccctggctccatcattgccatctgtcccttttcttttttcctcttcttc-3' / RNA 5'-Cy3-agccucuggagaagaagaggaaaaaagaaaagggacagauggcaaugauggagccagggacggaggcgauggagccaguggagccggagauga-3'"
measure_unit = "min"
test_result = 10.3


Now consider the entry below.
Ask: // lookup ring closure, halflife for DNA 5'-Cy5-acggattctgtgaaacggtggaggtgaggaT(biotin)agtcatgggtcaattagaagtcataggagaagtattaagggagtctatattgaggtactagc-3' / DNA 5'-Cy3-cagaatccgtgctagtacctcaatatagactcccttaatacttctcctatgacttctaattgacccatgactatcctcacctccaccgtttca-3'
Reply: 31.5
